tested on: A2780 cells; assay: In-vitro cell proliferation assay (SRB, 72 hours); type: cell-based; settings: Homo sapiens, sulforhodamine B (SRB) assay
ENDPOINT NAME: IC50 (nM)
Give the value in nM but do not write nM after it.

Some entries whose results are on file:
SMILES DATA	IC50 / nM
O=C(NCCC1CCN(S(=O)(=O)c2ccccc2)CC1)c1cc2cnccc2[nH]1	1030
CC(C)c1ncoc1C(=O)N1CCC(CCCCNC(=O)c2cc3cnccc3[nH]2)CC1	5.3
COc1ccc(Cl)cc1C(=O)N1CCC(CCCCNC(=O)c2cc3ccncc3s2)CC1	3.3
Cn1ccnc1C(=O)N1CCC(CCCCNC(=O)c2cc3cnccc3[nH]2)CC1	23.6
O=C(NCCCCC1CCN(C(=O)c2ccc(Cl)cc2Cl)CC1)c1ccc2nccn2c1	14.4

Tested on A2780 cells, the item O=C(NCCCCC1CCN(C(=O)c2cccc(F)c2F)CC1)c1cc2ccncc2s1 showed IC50 equal to 4.5

Item O=C(NCCCCC1CCN(C(=O)c2ccc(F)cc2)CC1)c1ccc2nccn2c1 was tested on A2780 cells; the reported IC50 is 26.2

Param item: O=C(NCCCCC1CCN(C(=O)c2ccc(N3CCOCC3)nc2)CC1)c1cc2cnccc2[nH]1 ; param system: A2780 cells; output IC50: 3.4

The value of IC50 recorded for COc1cccc(C(=O)N2CCC(CCCCNC(=O)c3ccc4nccn4c3)CC2)c1OC when tested on A2780 cells reads 2.9

Reported IC50 (A2780 cells) for entry O=C(NCCCCC1CCN(C(=O)c2ccc3ncsc3c2)CC1)c1cc2ccncc2s1 is 35.4

O=C(NCCCCC1CCN(C(=O)c2ccc3ncsc3c2)CC1)c1cc2cnccc2[nH]1 on A2780 cells gives IC50 = 12.6

The reported A2780 cells IC50 of O=C(NCCCCC1CCN(C(=O)c2ccc3[nH]ccc3c2)CC1)c1cc2ccncc2s1 is 71.1

Summary: O=C(NCCCCC1CCN(C(=O)c2c(F)cccc2F)CC1)c1cc2cnccc2[nH]1 , A2780 cells, IC50 = 1.4

Tested on A2780 cells: COc1cccc(OC)c1C(=O)N1CCC(CCCCNC(=O)c2ccc3nccn3c2)CC1 . Observed IC50: 1

For the compound Cc1ccc(C(=O)N2CCC(CCCCNC(=O)c3cc4cnccc4[nH]3)CC2)cc1F , the measured IC50 on A2780 cells was 22.4

Tested system A2780 cells; IC50 recorded for COc1cc(OC)cc(C(=O)N2CCC(CCCCNC(=O)c3ccc4nccn4c3)CC2)c1 was 2.8

Kindly note: A2780 cells, CSc1ncccc1C(=O)N1CCC(CCCCNC(=O)c2ccc3nccn3c2)CC1 , IC50 value reported: 0.7

Query O=C(NCCCCC1CCN(C(=O)c2ccncc2)CC1)c1cc2cnccc2[nH]1 on A2780 cells; IC50 returned: 4.4

Summary line: Cc1nc(CC(=O)N2CCC(CCCCNC(=O)c3cc4ccncc4s3)CC2)cs1 , A2780 cells, reported IC50 = 28.2

A2780 cells data for O=C(NCCCCN1CCN(C(=O)c2cccc(Cl)c2)CC1)c1cc2cnccc2[nH]1 ; its IC50: 347

Observed IC50 on A2780 cells, entry CC(C)c1ccc(C(=O)N2CCC(CCCCNC(=O)c3ccc4nccn4c3)CC2)nc1 , equals 52.9

Recorded IC50 for COc1cccc(C(=O)N2CCC(CCCCNC(=O)c3cc4cnccc4[nH]3)CC2)c1 on A2780 cells was 3.8

Observed IC50, A2780 cells, O=C(NCCCCC1CCN(C(=O)c2ccc(F)cc2F)CC1)c1cc2cnccc2[nH]1 : 8.1

Item CCOc1ccccc1C(=O)N1CCC(CCCCNC(=O)c2ccc3nccn3c2)CC1 was tested on A2780 cells; the reported IC50 is 0.7

Entry CCOc1cccc(C(=O)N2CCC(CCCCNC(=O)c3cc4ccncc4s3)CC2)c1 ; assay system A2780 cells; IC50 recorded at 76.5

IC50 of O=C(NCCCCC1CCN(C(=O)c2cc(Cl)cc(Cl)c2)CC1)c1cc2cnccc2[nH]1 , assay on A2780 cells, is 13

Simply: O=C(NCCCCC1CCN(C(=O)c2ccccn2)CC1)c1cc2cnccc2[nH]1 , A2780 cells, IC50 = 6.3

Entry COc1ccc(Cl)cc1C(=O)N1CCC(CCCCNC(=O)c2ccc3nccn3c2)CC1 under A2780 cells had IC50 of 3.1

A2780 cells IC50 of O=C(NCCCCC1CCN(C(=O)c2cnccc2C(F)(F)F)CC1)c1cc2ccncc2s1 is 6.9

Case O=C(NCCCCC1CCN(C(=O)c2ccc3[nH]ccc3c2)CC1)c1cc2cnccc2[nH]1 , A2780 cells, IC50 recorded as 13.5
